GLP1R Internalization EC50 overview
Target Desc: human GLP1-R (SNAP-GLP-1R expressed in HEK293 cells) (human) (UniProt P43220)
Sequence (P43220 24-463): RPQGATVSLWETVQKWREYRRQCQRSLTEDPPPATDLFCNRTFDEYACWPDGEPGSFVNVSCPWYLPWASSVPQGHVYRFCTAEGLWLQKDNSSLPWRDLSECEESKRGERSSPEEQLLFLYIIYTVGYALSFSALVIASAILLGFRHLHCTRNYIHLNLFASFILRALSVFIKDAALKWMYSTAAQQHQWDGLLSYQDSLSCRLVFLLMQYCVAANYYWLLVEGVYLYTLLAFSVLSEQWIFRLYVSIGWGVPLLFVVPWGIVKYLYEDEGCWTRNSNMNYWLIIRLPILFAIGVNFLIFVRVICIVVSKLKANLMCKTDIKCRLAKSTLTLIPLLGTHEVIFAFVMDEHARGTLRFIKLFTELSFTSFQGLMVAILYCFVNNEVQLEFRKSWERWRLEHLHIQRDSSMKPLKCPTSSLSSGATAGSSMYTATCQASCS
Assay Details: cell-based or functional assay
Answer with the number, then the unit.

Worked cases, GLP1R Internalization EC50 given:
Challenge: For the binder shown here, YXQGTFTSDFSKXLDKKAQXAFIEYLLEXGPSSGAPPPSEG (synthetic construct; SITE 2: note = 2-Aminoisobutyric Acid; SITE 13: note = alpha-methyl-leucine; SITE 17: note = Lysine is chemically modified through conjugation of the epsilon-amino group of the Lysine side chain with (2-[2-(2-Amino-ethoxy)-ethoxy]-acetyl)-(gamma-Glu)-CO-(CH2) 16-CO2H; SITE 20: n) [Example 57] , give the reported GLP1R Internalization EC50.
Response given: 76.6 nM

Challenge: For the binder shown here, YXQGTFTSDFSXXLDKKAQXAFIEYLLEXGPSSGAPPPSEG (synthetic construct; SITE 2: note = 2-Aminoisobutyric Acid; SITE 12: note = L-ornithine; SITE 13: note = alpha-methyl-leucine; SITE 17: note = Lysine is chemically modified through conjugation of the epsilon-amino group of the Lysine side chain with (2-[2-(2-Amino-ethoxy)-ethoxy]-acetyl)2-(gamma-Glu)) [Example 71] , give the reported GLP1R Internalization EC50.
Response given: 58.8 nM

New cases:
Challenge: For the binder shown here, YXQGTFTSDFSXXLDKKAQXAFIEYLLAGGPSSGAPPPEGE (synthetic construct; SITE 2: note = 2-Aminoisobutyric Acid; SITE 12: note = L-ornithine; SITE 13: note = alpha-methyl-leucine; SITE 17: note = Lysine is chemically modified through conjugation of the epsilon-amino group of the Lysine side chain with (2-[2-(2-Amino-ethoxy)-ethoxy]-acetyl)-(gamma-Glu)) [Example 99] , give the reported GLP1R Internalization EC50.
Response given: 56.9 nM
